Attribution: PubChem BioAssay

EXPERIMENT_SUMMARY: compound effects on hepatocellular carcinoma cell viability – HepG2, calcein-AM fluorescence, 48 h, basal, profiling panel (AID 1164); also: test concentration not given here
MEASUREMENT_SETUP: higher = more signal
QUANTITY: z-score
API doc: respond with a numeric literal and nothing else, no unit.

Data request: Reported z-score, compound CCCCCCC#C[Si](O[C@H](c1ccccc1)c1cn(Cc2cccc(Cl)c2)nn1)(C(C)C)C(C)C : ____
Data returned: 0.761

Data request: Reported z-score, compound CC(C)C(CO)N1C(=O)[C@@H]2[C@H]3C(=O)OCC=C[C@H]3OC23C=CCN(CCN2CCOCC2)C(=O)[C@@H]13 (some centres undefined) : ____
Data returned: -0.434

Data request: Reported z-score, compound O=C1OCCC=C[C@H]2OC34C=CCN(Cn5nnc6ccccc65)C(=O)[C@H]3N(CCCCCO)C(=O)[C@@H]4C12 (some centres undefined) : ____
Data returned: 0.293

Data request: Reported z-score, compound COCCOC(=O)N1C(=O)[C@@]2(c3cc(C#CCNC(N)=O)ccc31)[C@H](c1ccc(OCCO)cc1)N1[C@H](c3ccccc3)[C@H](c3ccccc3)OC(=O)[C@H]1[C@@H]2C(=O)N1CCN(c2ncccn2)CC1 : ____
Data returned: -0.123

Data request: Reported z-score, compound C=CCOc1ccc([C@@H]2CC=C(C(=O)OCC)[C@H](c3cccc(Br)c3)N2S(=O)(=O)c2ccc(C)cc2)cc1 : ____
Data returned: -0.508

Data request: Reported z-score, compound COC(=O)[C@@]1(Cc2ccc(OC)cc2)[C@H]2c3cc(C(=O)N(C)C)n(CCF)c3C[C@H]2CN1C(=O)c1ccccc1 : ____
Data returned: -0.0897

Data request: Reported z-score, compound COc1cc(NN2C(C(O)c3ccc(I)cc3)C=CC3C(=O)N(C)C(=O)C32)cc(OC)c1OC (centres undefined) : ____
Data returned: 0.196

Data request: Reported z-score, compound CO[C@H]1O[C@H](CO)[C@@H](OC(=O)Nc2cccc(F)c2)[C@H](OC(=O)Nc2ccc3c(c2)OCO3)[C@H]1OC(=O)Nc1ccc2c(c1)OCO2 : ____
Data returned: -1.86

Data request: Reported z-score, compound C=CCC(OC(C)=O)[C@@H]1[C@@H](N(Cc2ccc(-c3ccccc3)cc2)C(=O)Cc2ccc(OC)cc2)c2cc(OCCCO)ccc2N1C(=O)c1ccc(-c2ccccc2)cc1 (some centres undefined) : ____
Data returned: 1.3
